target: UniProt:Q9NXA8; test: Substrate activity at human N-terminal His-tagged SIRT5 (34 to 302 residues) expressed in Escherichia coli at 50 uM measured after 2 hrs in presence of NAD+ and trypsin by fluorescence assay
Sequence (Q9NXA8 37-310 limits assumed): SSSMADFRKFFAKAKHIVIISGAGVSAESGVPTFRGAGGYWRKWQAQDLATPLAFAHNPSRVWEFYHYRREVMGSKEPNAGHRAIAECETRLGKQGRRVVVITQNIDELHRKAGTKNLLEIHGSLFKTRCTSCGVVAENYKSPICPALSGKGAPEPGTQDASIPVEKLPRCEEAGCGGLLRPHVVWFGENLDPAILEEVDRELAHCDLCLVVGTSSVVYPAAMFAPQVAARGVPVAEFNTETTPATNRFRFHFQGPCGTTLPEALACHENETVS
*1 amine or outer side, *2 acyl side, *3 side chain or, on linkers, in order; H or OH if unused. Where a SMILES comes first, the peptide text is derived from it. The star is where a group is joined. AMC = Cc1cc(=O)oc2cc(N*)ccc12; Suc = O=C(CCC(=O)[*:2])[*:1]; Decanoyl = CCCCCCCCCC(=O)*
# Activity per entry
property.name: Activity (RFU)

[[record]]
molecule = "CCCCCCCCCC(=O)NCCCC[C@H](NC(=O)[C@H](CCCCN)NC(=O)[C@@H]1CCCN1C(=O)[C@H](CC(N)=O)NC(C)=O)C(=O)Nc1ccc2c(C)cc(=O)oc2c1 (Ac-NPKK(Decanoyl)-{AMC})"
numeric_value = 1.99

[[record]]
molecule = "CC(=O)NCCCC[C@H](NC(=O)[C@H](CCCNC(=N)N)NC(=O)[C@H](CO)NC(=O)[C@H](CC(N)=O)NC(C)=O)C(=O)Nc1ccc2c(C)cc(=O)oc2c1 (Ac-NSRK(Ac)-{AMC})"
numeric_value = 1.02

[[record]]
molecule = "CC[C@H](C)[C@H](NC(=O)[C@H](CC(C)C)NC(=O)[C@H](CCCNC(=N)N)NC(C)=O)C(=O)N[C@@H](CCCCNC(C)=O)C(=O)Nc1ccc2c(C)cc(=O)oc2c1 (Ac-RLIK(Ac)-{AMC})"
numeric_value = 0.98

[[record]]
molecule = "CC(=O)N[C@@H](CO)C(=O)N[C@@H](CC(C)C)C(=O)NCC(=O)N[C@@H](CCCCNC(=O)CCC(=O)O)C(=O)Nc1ccc2c(C)cc(=O)oc2c1 (Ac-SLGK(Suc)-{AMC})"
numeric_value = 1.5

[[record]]
molecule = "CC(=O)N[C@@H](CC(C)C)C(=O)NCC(=O)N[C@@H](CO)C(=O)N[C@@H](CCCCNC(=O)CCC(=O)O)C(=O)Nc1ccc2c(C)cc(=O)oc2c1 (Ac-LGSK(Suc)-{AMC})"
numeric_value = 1.41

[[record]]
molecule = "CCCCCCCCCC(=O)NCCCC[C@H](NC(=O)[C@H](CCC(N)=O)NC(=O)[C@@H](NC(=O)[C@H](CCCCN)NC(C)=O)C(C)C)C(=O)Nc1ccc2c(C)cc(=O)oc2c1 (Ac-KVQK(Decanoyl)-{AMC})"
numeric_value = 0.78

[[record]]
molecule = "CC(=O)NCCCC[C@H](NC(=O)[C@H](CCCCN)NC(=O)[C@H](Cc1cnc[nH]1)NC(=O)[C@H](CCCNC(=N)N)NC(C)=O)C(=O)Nc1ccc2c(C)cc(=O)oc2c1 (Ac-RHKK(Ac)-{AMC})"
numeric_value = 0.61

